Consider the following molecules and their measured efflux ratio at 2 h, 1 µM readings.
- tested-target: BCRP (Homo sapiens (Human))
- Sequence (Q9UNQ0 whole entry): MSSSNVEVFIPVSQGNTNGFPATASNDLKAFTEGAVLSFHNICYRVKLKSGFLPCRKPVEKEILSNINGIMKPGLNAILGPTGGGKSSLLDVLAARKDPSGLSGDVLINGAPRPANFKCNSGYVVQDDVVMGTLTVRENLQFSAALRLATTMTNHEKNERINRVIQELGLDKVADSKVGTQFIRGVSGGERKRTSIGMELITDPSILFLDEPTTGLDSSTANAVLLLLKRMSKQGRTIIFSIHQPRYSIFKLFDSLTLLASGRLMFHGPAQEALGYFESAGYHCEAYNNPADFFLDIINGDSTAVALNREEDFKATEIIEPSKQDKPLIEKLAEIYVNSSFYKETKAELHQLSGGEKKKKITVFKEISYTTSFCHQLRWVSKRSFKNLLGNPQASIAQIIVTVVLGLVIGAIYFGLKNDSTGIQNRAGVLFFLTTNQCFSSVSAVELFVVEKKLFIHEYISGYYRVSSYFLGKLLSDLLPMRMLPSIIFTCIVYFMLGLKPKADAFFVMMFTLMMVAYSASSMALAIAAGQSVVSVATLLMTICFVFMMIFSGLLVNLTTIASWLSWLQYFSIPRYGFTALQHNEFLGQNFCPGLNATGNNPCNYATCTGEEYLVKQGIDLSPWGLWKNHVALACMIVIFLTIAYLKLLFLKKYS
- assay-info: BCRP MDCKII efflux assay (Assay 7)
- Type: in vitro ADME
- measurement-parameters: dog; efflux ratio Papp(B-A)/Papp(A-B), BCRP MDCKII cells; read-out: Assay 7 Pe Ratio

{"molecule": "C=CC(=O)N1CCN(c2ccc3ncnc(Nc4ccc(Oc5cc(F)c6c(c5)ncn6C)c(C)c4)c3n2)C[C@H]1CC", "efflux ratio at 2 h, 1 µM": 7.6}
{"molecule": "C=CC(=O)N1[C@@H]2CC[C@H]1[C@H](c1ccc3ncnc(Nc4ccc(Oc5ccn6ncnc6c5)c(C)c4F)c3n1)C2 (racemic) [Example 213]", "efflux ratio at 2 h, 1 µM": 3.4}
{"molecule": "C=CC(=O)N1C2CC1CN(c1ccc3ncnc(Nc4ccc(Oc5ccn6ncnc6c5)c(C)c4F)c3n1)C2", "efflux ratio at 2 h, 1 µM": 9.6}
